details: siRNA; further: test system not given here
HELM strings list units from the 5' end as sugar, base in round brackets, then linkage (d deoxyribose, r ribose, m 2'-O-methyl, p phosphodiester). Strings are as the collection lists them, not checked against the first reports. ss, as = sense and antisense strand; [lna] = locked nucleic acid (LNA); [s4r] = 4'-thioribose
Property name: target mRNA knockdown (%)
Number in %, nothing else.

// solved cases for target mRNA knockdown follow
Substance	Unit text	Data value
RNA1{r(C)p.r(U)p.r(U)p.r(A)p.r(C)p.r(G)p.r(C)p.r(U)p.r(G)p.r(A)p.r(G)p.r(U)p.r(A)p.r(C)p.r(U)p.r(U)p.r(C)p.r(G)p.r(A)p.r(T)p.r(T)}|RNA2{r(T)p.r(C)p.r(G)p.r(A)p.r(A)p.[lna](G)p.r(U)p.r(A)p.r(C)p.r(U)p.r(C)p.r(A)p.r(G)p.r(C)p.r(G)p.r(U)p.r(A)p.r(A)p.r(G)p.[lna](T)p.[lna](T)}$$$RNA1{StrandType:ss}|RNA2{StrandType:as}$	%	85
RNA1{[s4r](C)p.[s4r](G)p.[s4r](U)p.[s4r](A)p.r(C)p.r(G)p.r(C)p.r(G)p.r(G)p.r(A)p.r(A)p.r(U)p.r(A)p.r(C)p.r(U)p.r(U)p.r(C)p.r(G)p.r(A)p.r(T)p.r(T)}|RNA2{r(U)p.r(C)p.r(G)p.r(A)p.r(A)p.r(G)p.r(U)p.r(A)p.r(U)p.r(U)p.r(C)p.r(C)p.r(G)p.r(C)p.r(G)p.[s4r](U)p.[s4r](A)p.[s4r](C)p.[s4r](G)p.r(T)p.r(T)}$$$RNA1{StrandType:ss}|RNA2{StrandType:as}$	%	86.1
RNA1{m(G)p.r(A)p.m(A)p.r(G)p.m(A)p.r(G)p.m(C)p.r(C)p.m(U)p.r(A)p.m(C)p.r(A)p.m(C)p.r(A)p.m(A)p.r(C)p.m(C)p.r(C)p.m(U)p.r(T)p.r(T)}|RNA2{r(A)p.r(G)p.r(G)p.r(G)p.r(U)p.r(U)p.r(G)p.r(U)p.m(G)p.r(U)p.m(A)p.r(G)p.m(G)p.r(C)p.m(U)p.r(C)p.m(U)p.r(U)p.m(C)p.r(T)p.r(T)}$$$RNA1{StrandType:ss}|RNA2{StrandType:as}$	%	50
RNA1{r(A)p.r(A)p.r(C)p.r(A)p.r(G)p.r(C)p.r(C)p.r(U)p.r(U)p.r(A)p.r(C)p.r(C)p.r(C)p.r(C)p.r(G)p.r(A)p.r(U)p.r(U)p.r(C)p.r(T)p.r(T)}|RNA2{r(G)p.r(A)p.r(A)p.r(U)p.r(C)p.r(G)p.r(G)p.r(G)p.r(G)p.m(U)p.r(A)p.r(A)p.r(G)p.r(G)p.r(C)p.r(U)p.r(G)p.r(U)p.r(U)p.r(T)p.r(T)}$$$RNA1{StrandType:ss}|RNA2{StrandType:as}$	%	69

Now consider the entry below.
Kindly note the recorded target mRNA knockdown for RNA1{r(C)p.r(U)p.r(U)p.r(A)p.r(C)p.r(G)p.r(C)p.r(U)p.r(G)p.r(A)p.r(G)p.r(U)p.r(A)p.r(C)p.r(U)p.r(U)p.r(C)p.r(G)p.r(A)p.r(T)p.r(T)}|RNA2{r(U)p.r(C)p.r(G)p.r(A)p.r(A)p.r(G)p.[lna](U)p.r(A)p.r(C)p.r(U)p.r(C)p.r(A)p.r(G)p.r(C)p.r(G)p.r(U)p.r(A)p.r(A)p.r(G)p.r(T)p.r(T)}$$$RNA1{StrandType:ss}|RNA2{StrandType:as}$ , which is 81

Values were extracted from the OligoGym collection.
